Origin of measurements: ChEMBL document CHEMBL1141151

Target: Receptor tyrosine-protein kinase erbB-2 (Homo sapiens, UniProt P04626)
Sequence (P04626 whole entry): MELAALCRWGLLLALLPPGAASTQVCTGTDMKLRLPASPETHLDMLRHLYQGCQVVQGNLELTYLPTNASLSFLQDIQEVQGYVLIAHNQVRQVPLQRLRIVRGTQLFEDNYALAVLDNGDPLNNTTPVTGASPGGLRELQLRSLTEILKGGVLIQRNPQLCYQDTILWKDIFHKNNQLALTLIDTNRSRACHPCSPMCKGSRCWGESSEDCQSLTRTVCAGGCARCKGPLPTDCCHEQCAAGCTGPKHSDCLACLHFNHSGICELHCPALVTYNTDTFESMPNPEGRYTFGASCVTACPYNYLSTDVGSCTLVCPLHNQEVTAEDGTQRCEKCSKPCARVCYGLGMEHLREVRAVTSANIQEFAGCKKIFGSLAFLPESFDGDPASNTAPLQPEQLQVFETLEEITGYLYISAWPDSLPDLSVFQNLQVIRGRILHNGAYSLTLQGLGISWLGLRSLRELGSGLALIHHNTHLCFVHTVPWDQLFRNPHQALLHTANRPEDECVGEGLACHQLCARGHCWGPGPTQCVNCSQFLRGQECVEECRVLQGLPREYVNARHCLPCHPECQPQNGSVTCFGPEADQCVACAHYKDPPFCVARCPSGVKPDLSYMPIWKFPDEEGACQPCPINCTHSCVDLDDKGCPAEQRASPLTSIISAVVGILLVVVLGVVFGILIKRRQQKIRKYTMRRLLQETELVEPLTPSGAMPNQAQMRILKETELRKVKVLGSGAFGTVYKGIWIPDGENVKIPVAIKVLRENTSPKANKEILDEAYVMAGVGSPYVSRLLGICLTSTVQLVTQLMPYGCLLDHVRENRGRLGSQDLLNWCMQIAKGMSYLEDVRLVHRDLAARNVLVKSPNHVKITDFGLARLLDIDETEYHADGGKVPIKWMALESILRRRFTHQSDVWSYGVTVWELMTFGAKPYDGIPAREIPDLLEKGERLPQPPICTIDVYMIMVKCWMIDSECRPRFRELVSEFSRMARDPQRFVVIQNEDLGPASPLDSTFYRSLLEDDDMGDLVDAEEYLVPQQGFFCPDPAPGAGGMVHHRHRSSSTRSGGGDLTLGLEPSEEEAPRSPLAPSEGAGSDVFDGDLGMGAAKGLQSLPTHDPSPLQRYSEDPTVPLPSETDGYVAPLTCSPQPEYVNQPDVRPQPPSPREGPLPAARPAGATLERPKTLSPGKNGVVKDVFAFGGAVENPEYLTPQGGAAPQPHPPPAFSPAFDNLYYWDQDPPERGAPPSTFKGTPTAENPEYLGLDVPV
Assay: Inhibition of HER2 kinase in intact CSH12 cells
Assay type: cell-based
pIC50: −log10 of the molar value.
quantityName: pIC50

>>> result("COCC(=O)Nc1ccc2ncnc(Nc3cc(Cl)c(Cl)cc3F)c2c1")
"< 6.30"

----------
Target: Platelet-derived growth factor receptor (Homo sapiens, UniProt P09619+P16234)
Assay: Inhibition of human PDGFR kinase in intact NIHPDGFR cells
# key: entry, value: IC50
quantityName: IC50

>>> result("CN(C)C/C=C/C(=O)Nc1ccc2ncnc(Nc3cc(Cl)c(Cl)cc3F)c2c1")
"> 1000 nM"
>>> result("COCC(=O)Nc1ccc2ncnc(Nc3cc(Cl)c(Cl)cc3F)c2c1")
"> 1000 nM"
>>> result("O=C(CCl)Nc1ccc2ncnc(Nc3cc(Cl)c(Cl)cc3F)c2c1")
"> 1000 nM"
